test.summary: JC-1 mitochondrial signal, unstimulated HepG2 cells – cell-based, JC-1 fluorescence, 24 h, 100 nL compound, profiling panel (AID 1167); also: test concentration not given here
cond: HepG2 mitochondrial potential, higher = more signal
# binarize z-score: threshold 0.2 inclusive, high side YES, low side NO

The following compounds have reported results that may help.
- OB1C=CCC(CCc2ccccc2)O1 (centres undefined): YES
- COC(=O)[C@]1(CCC(=O)OC(C)(C)C)N=C(c2ccc(OCCCO)cc2)O[C@@H]1c1ccccc1: NO
- O=C1C2C=CC(C(O)COCc3ccccc3)N(Nc3ccc([N+](=O)[O-])cc3)C2C(=O)N1c1ccccc1 (centres undefined): NO

In: For this compound, is measured z-score 0.2 or higher? COC(=O)[C@@]1(Cc2ccccc2)[C@H]2c3cc(C(=O)N(C)C)n(CCc4c[nH]c5ccc(O)cc45)c3C[C@H]2CN1C(=O)c1ccccc1
Out: NO

In: For this compound, is measured z-score 0.2 or higher? CCOC(=O)C[C@H]1[C@H](OC(=O)c2ccc(-c3ccccc3)cc2)[C@@H](NC(=O)c2ccccc2)c2cc(OCCCO)ccc2N1C(=O)Cc1ccc(OC)cc1
Out: YES

In: For this compound, is measured z-score 0.2 or higher? COc1cc(CO)cc(I)c1O[C@H]1C=C(C(=O)NCCO)C[C@@H](N(C(=O)c2cc3ccccc3oc2=O)C2CCCCCC2)[C@@H]1O
Out: NO

In: For this compound, is measured z-score 0.2 or higher? CO[C@H]1O[C@H](CO)[C@@H](OC(=O)Nc2ccc(Oc3ccccc3)cc2)[C@H](OC(=O)Nc2ccc3c(c2)OCO3)[C@@H]1OC(=O)Nc1ccc2c(c1)OCO2
Out: NO

In: For this compound, is measured z-score 0.2 or higher? C[C@H]1C2[C@H](Cc3ccccc3)NC(=O)[C@]23C(=O)NCC(=O)N2CCC[C@H]2C(=O)NC/C=C/CCC/C=C/C3[C@@H]2O[C@]12C (some centres undefined)
Out: YES

In: For this compound, is measured z-score 0.2 or higher? C[N+](C)(C)CCCC[C@@H]1NC(=O)[C@H]2C[C@@H](C(=O)NCCCCCCNC(=O)CS)[C@@H](c3ccc(O)cc3)N2C1=O
Out: NO

In: For this compound, is measured z-score 0.2 or higher? CN(C)CCCCCCNC(=O)[C@@H]1C[C@@H]2C(=O)N[C@@H](CCCC[N+](C)(C)C)C(=O)N2[C@@H]1c1ccc(O)cc1
Out: NO

---

System: wheat germ agglutinin (Triticum aestivum), Alexa647-labelled
test.summary: Alexa647-WGA lectin binding to printed small molecules – biochemical, small-molecule microarray, 635/667 nm fluorescence, artefact control for SMM control-protein annotation, profiling panel (AID 1140);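 also: score merges 667 nm feature emission with signal to noise over triplicate slides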
cond: WGA-A647 binding, 635 nm fluorescence, higher = more signal
# binarize composite z-score: threshold 0.6 inclusive, high side satisfied, low side not satisfied

* CC(C)NC(=O)[C@@H]1c2ccccc2C(=O)N(C(C)C)[C@H]1c1ccc(CO)cc1 | not satisfied
* COC(=O)[C@@]1(Cc2ccc(OC)cc2)[C@H]2c3cc(C(=O)N(C)C)n(Cc4ccc(C(F)(F)F)nc4)c3C[C@H]2CN1C(=O)c1ccccc1 | satisfied
* C#CCN1[C@@H](Cc2ccc(O)cc2)C(=O)O[C@H](Cc2ccccc2)[C@@H]1/C=C/C1CC1 | not satisfied
* COc1ccc([C@H]2OC[C@@H]3CCC(=O)N32)cc1 | not satisfied

In: For this molecule, is measured composite z-score 0.6 or higher? C=C(C(=O)CC[C@H](OC(C)=O)c1ccccc1OCCO)C(C)C
Out: not satisfied

In: For this molecule, is measured composite z-score 0.6 or higher? CCOC(=O)C[C@H]1[C@H](OC(=O)c2cc3ccccc3oc2=O)[C@@H](NC(=O)CC(C)C)c2cc(OCCCO)ccc2N1C(=O)c1ccccc1
Out: satisfied

In: For this molecule, is measured composite z-score 0.6 or higher? COc1cc2c(cc1O)C(c1cccs1)N(Cc1ccc([N+](=O)[O-])o1)CC2 (stereo unspecified)
Out: satisfied

---

Tested on: PRMT1 (protein arginine N-methyltransferase 1)
test.summary: small molecules binding arginine methyltransferase PRMT1 – biochemical, small-molecule microarray, 635 nm fluorescence, primary screen (AID 1088);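 also: binding of Prmt1 protein to compounds spotted on small-molecule microarray slides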
cond: higher = more signal
# binarize composite z-score: threshold 1 inclusive, high side y, low side n

The following compounds have reported results that may help.
* COc1cc2c(cc1O)C(c1cccs1)N(Cc1cccc(OC(F)(F)F)c1)CC2 (centres undefined) | y
* O=C1NC(=O)C2C1C=CC(C(O)c1ccc(-c3ccccc3)s1)N2Nc1ccc(Cl)cc1Cl (centres undefined) | n
* COc1ccc([Si](C)(C)[C@@H]2[C@@H](CC(=O)N3CCC[C@H]3CO)O[C@]3(C(=O)N(Cc4cccc(I)c4)c4ccccc43)[C@H]2C)cc1 | y

In: For this compound, is measured composite z-score 1 or higher? COc1ccc([Si](C)(C)[C@@H]2[C@@H](CCn3cc(CCO)nn3)O[C@]3(C(=O)N(Cc4cccc(N5C(=O)c6cccc7cccc5c67)c4)c4ccccc43)[C@H]2C)cc1
Out: y

In: For this compound, is measured composite z-score 1 or higher? CC(C)[Si](C#C[Si](C(C)C)(C(C)C)C(C)C)(O[C@H](C)c1cn(Cc2ccccc2)nn1)C(C)C
Out: y

In: For this compound, is measured composite z-score 1 or higher? COC(=O)c1c2oc(c1C(=O)OC)C(=O)NC1(CCCCC1)c1cn(nn1)C[C@H](Cc1ccccc1)NC(=O)N[C@H](CO)CC2
Out: y

In: For this compound, is measured composite z-score 1 or higher? O=C1O[C@@H](c2ccccc2)[C@@H](c2ccccc2)N2[C@@H](c3ccc(OCCO)cc3)[C@]3(C(=O)Nc4ccc(C#CC5=CCCCC5)cc43)[C@@H](C(=O)N3CCCCCCC3)[C@H]12
Out: y

In: For this compound, is measured composite z-score 1 or higher? CCCCCN1CC=CC23O[C@@H]4C=CCOC(=O)[C@@H]4[C@H]2C(=O)N(C(C)CO)[C@@H]3C1=O (some centres undefined)
Out: n

In: For this compound, is measured composite z-score 1 or higher? CC(C)CCC[C@@H](C)[C@H]1CC[C@@]2(C)C3=C(CC[C@]12C)[C@@]1(C)CC[C@H](OC(=O)c2ccc(C(F)(F)F)nc2)C(C)(C)C1CC3 (some centres undefined)
Out: n

In: For this compound, is measured composite z-score 1 or higher? C=CCNC(=O)[C@@H]1[C@H]2C(=O)O[C@H](c3ccccc3)[C@H](c3ccccc3)N2[C@H](c2ccc(OCCO)cc2)[C@@]12C(=O)N(C(=O)OCCOC)c1ccc(C#CCC(C(=O)OC)C(=O)OC)cc12
Out: y

In: For this compound, is measured composite z-score 1 or higher? COc1ccc([Si](C)(C)[C@H]2[C@H](CCn3cc([C@H](O)c4ccccc4)nn3)O[C@@]3(C(=O)N(C)c4ccccc43)[C@@H]2C)cc1
Out: n

---

test.summary: resazurin metabolic signal in HepG2 cells – cell-based, resazurin fluorescence, 24 h, PK04 Diversity Set, profiling panel (AID 1172); also: test concentration not given here
cond: HepG2 viability, higher = more signal
Parameter class (string): assigned from measured z-score. Ranges: low end (below -0.1), middle (-0.1 to below 0.3), high end (0.3 or more)

The following molecules have reported results that may help.
• COC(=O)[C@@]1(Cc2ccc(OC)cc2)[C@H]2c3cc(C(=O)N(C)C)n(Cc4ccc(C(F)(F)F)nc4)c3C[C@H]2CN1C(=O)c1ccccc1 = middle
• COc1cc(CO)cc(I)c1O[C@H]1C=C(C(=O)NCCO)C[C@@H](NC[C@@H]2CCCO2)[C@@H]1O = high end
• C=CCNC(=O)[C@@H]1[C@H]2C(=O)O[C@H](c3ccccc3)[C@H](c3ccccc3)N2[C@H](c2ccc(OCCO)cc2)[C@@]12C(=O)N(C(=O)OCCOC)c1ccc(C#CCC(C(=O)OC)C(=O)OC)cc12 = low end

In: Please indicate the class for O=C1OCCC=C[C@H]2OC34C=CCN(CCN5CCOCC5)C(=O)[C@H]3N(CCCCCO)C(=O)[C@@H]4C12 (some centres undefined) based on its z-score.
Out: low end

In: Please indicate the class for COc1ccc(-c2cc3c(c(Cc4ccccc4)n2)[Si](C(C)C)(C(C)C)OC3)cn1 based on its z-score.
Out: middle

In: Please indicate the class for C=CCOC(=O)[C@H]1[C@@H]2C(=O)O[C@@H](c3ccccc3)[C@@H](c3ccccc3)N2[C@@H](c2ccc(OCCOC(=O)[C@H]3C[C@H]4C(=O)N[C@@H](CCCCN(C)C)C(=O)N4[C@H]3c3cccc(OCCO)c3)cc2)[C@]12C(=O)Nc1ccc(I)cc12 based on its z-score.
Out: middle

In: Please indicate the class for C#CCOc1ccc(C[C@@H](C(=O)OC)N(CC#C)[C@@H](/C=C/C2CC2)[C@H](O)Cc2ccccc2)cc1 based on its z-score.
Out: middle

In: Please indicate the class for CC(C)NC(=O)[C@@]1(Cc2ccccc2I)c2ccccc2C(=O)N(Cc2ccccc2Cl)[C@H]1c1ccc(CO)cc1 based on its z-score.
Out: low end

In: Please indicate the class for C=CC[C@]1(C(N)=O)COC(c2ccc(OCCCO)cc2)=N1 based on its z-score.
Out: high end

In: Please indicate the class for COC(=O)[C@@]1(Cc2ccccc2)[C@H]2c3cc(C(=O)N(C)C)n(Cc4ccc(OC)c(OC)c4)c3C[C@H]2CN1C(=O)c1ccccc1 based on its z-score.
Out: low end
